assay: Osmolality of aqueous solutions; type: physicochemical; conditions: 300 mg I/ml, 37°C
measure-name: Osmolality (mOsm/kg at 300 mg I/ml) 37°C

{"columns": ["compound", "result"],
 "data": [
  ["CN(C(=O)CC(=O)N(C)c1c(I)c(C(=O)NC(CO)C(O)CO)c(I)c(C(=O)NC(CO)C(O)CO)c1I)c1c(I)c(C(=O)NC(CO)C(O)CO)c(I)c(C(=O)NC(CO)C(O)CO)c1I (stereo not shown) [IOTROLAN, reference compound]", "320 mOsm/kg"],
  ["CN(CC(=O)N(C)c1c(I)c(C(=O)NCC(O)CO)c(I)c(C(=O)NCC(O)CO)c1I)C(=O)c1c(I)c(NC(=O)CO)c(I)c(C(=O)NCC(O)CO)c1I (stereo not shown)", "152 mOsm/kg"],
  ["CC(=O)Nc1c(I)c(C(=O)NCC(O)CO)c(I)c(C(=O)N(CC(=O)Nc2c(I)c(C(=O)NCC(O)CO)c(I)c(C(=O)NCC(O)CO)c2I)CC(O)CO)c1I (stereo not shown)", "125 mOsm/kg"],
  ["COCC(=O)Nc1c(I)c(C(=O)NCC(O)CO)c(I)c(C(=O)N(C)CC(=O)N(C)c2c(I)c(C(=O)NC(CO)C(O)CO)c(I)c(C(=O)NC(CO)C(O)CO)c2I)c1I (stereo not shown)", "226 mOsm/kg"]
]}
